# Target: human CAR (hCAR) (Homo sapiens)
# Sequence (Q14994 1-348 isoform Q14994-2): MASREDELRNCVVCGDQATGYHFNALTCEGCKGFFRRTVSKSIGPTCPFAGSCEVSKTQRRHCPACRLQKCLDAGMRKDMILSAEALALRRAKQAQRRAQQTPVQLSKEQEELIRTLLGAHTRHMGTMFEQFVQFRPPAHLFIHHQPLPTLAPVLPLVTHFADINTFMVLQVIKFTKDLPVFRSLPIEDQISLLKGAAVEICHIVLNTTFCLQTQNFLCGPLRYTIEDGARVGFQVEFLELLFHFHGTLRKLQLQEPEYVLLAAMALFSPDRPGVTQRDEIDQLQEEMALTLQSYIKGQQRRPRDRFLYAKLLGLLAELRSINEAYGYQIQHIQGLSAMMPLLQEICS
# Test method notes: hCAR luciferase reporter qHTS, antagonist mode (HepG2-CYP2B6-hCAR cells, CITCO co-treatment);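 further: stable HepG2 line carrying hCAR plus a CYP2B6 promoter (PBREM/XREM) luciferase reporter, 1536-well format, 24 h compound exposure at 37 °C, then luminescence read with ONE-Glo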
# Test parameters: antagonist mode, follow-up cherry-pick, relative to PK11195 (100%)
Exercise: state measured Follow-up Confirmation Efficacy for each of the compounds provided.
Answer format reminder: number followed by unit.

Prompt: Please report the recorded Follow-up Confirmation Efficacy for CC[C@@]1(O)C(=O)OCc2c1cc1n(c2=O)Cc2cc3c(CN(C)C)c(O)ccc3nc2-1 .
Completion: -109%

Prompt: Please report the recorded Follow-up Confirmation Efficacy for Cc1c(O)cccc1C(=O)N[C@@H](CSc1ccccc1)[C@H](O)CN1C[C@H]2CCCC[C@H]2C[C@H]1C(=O)NC(C)(C)C .
Completion: -101%

Prompt: Please report the recorded Follow-up Confirmation Efficacy for O=c1[nH]c(=O)n([C@H]2C[C@H](O)[C@@H](CO)O2)cc1C(F)(F)F .
Completion: -73%

Prompt: Please report the recorded Follow-up Confirmation Efficacy for C[C@H]1O[C@@H](O[C@H]2[C@@H](O)C[C@H](O[C@H]3[C@@H](O)C[C@H](O[C@H]4CC[C@@]5(C)[C@H](CC[C@@H]6[C@@H]5CC[C@]5(C)[C@@H](C7=CC(=O)OC7)CC[C@]65O)C4)O[C@@H]3C)O[C@@H]2C)C[C@H](O)[C@@H]1O .
Completion: -98%

Prompt: Please report the recorded Follow-up Confirmation Efficacy for Nc1ncnc2c1ncn2CCOCP(=O)(O)O .
Completion: -87%

Prompt: Please report the recorded Follow-up Confirmation Efficacy for CO[C@@]12[C@H](COC(N)=O)C3=C(C(=O)C(C)=C(N)C3=O)N1C[C@@H]1N[C@@H]12 .
Completion: -110%

* * *

# Target: human CAR (hCAR) (Homo sapiens, UniProt Q14994)
# Sequence (Q14994 1-348 isoform Q14994-2): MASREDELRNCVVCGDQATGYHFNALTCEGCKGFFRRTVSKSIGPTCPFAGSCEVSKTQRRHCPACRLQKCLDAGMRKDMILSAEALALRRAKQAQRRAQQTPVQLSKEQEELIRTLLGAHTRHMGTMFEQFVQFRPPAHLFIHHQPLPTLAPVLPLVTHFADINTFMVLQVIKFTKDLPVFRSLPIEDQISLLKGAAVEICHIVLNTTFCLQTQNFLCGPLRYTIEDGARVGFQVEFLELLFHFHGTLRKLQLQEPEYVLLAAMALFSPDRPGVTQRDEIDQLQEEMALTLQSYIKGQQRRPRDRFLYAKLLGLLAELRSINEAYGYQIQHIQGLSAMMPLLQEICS
# Test method notes: hCAR luciferase reporter qHTS, agonist mode (HepG2-CYP2B6-hCAR cells, PK11195 co-treatment)
# Test parameters: agonist mode, follow-up cherry-pick, relative to CITCO (100%)
Readout: Follow-up Confirmation Efficacy (%)
Only the number, expressed in %, is required.

Prompt: Please report the recorded Follow-up Confirmation Efficacy for NNCCc1ccccc1 [Phenelzine] .
Completion: 70

Prompt: Please report the recorded Follow-up Confirmation Efficacy for O=c1cc(-c2ccccc2)oc2ccccc12 [Flavone] .
Completion: 200

Prompt: Please report the recorded Follow-up Confirmation Efficacy for CC(COc1ccccc1)N(CCCl)Cc1ccccc1 (stereo not drawn) [Phenoxybenzamine] .
Completion: 49

Prompt: Please report the recorded Follow-up Confirmation Efficacy for COc1cc(N)c(Cl)cc1C(=O)NC1CCN(Cc2ccccc2)CC1 [Clebopride] .
Completion: 80

Prompt: Please report the recorded Follow-up Confirmation Efficacy for CCO[C@H]1O[C@@H]2O[C@@]3(C)CC[C@H]4[C@H](C)CC[C@@H]([C@H]1C)[C@@]24OO3 [Artemotil] .
Completion: 71

Prompt: Please report the recorded Follow-up Confirmation Efficacy for CCCCNc1c(C(=O)OCC)c(C)nc2c1cnn2CC [Tracazolate] .
Completion: 101

Prompt: Please report the recorded Follow-up Confirmation Efficacy for CN1CCc2cccc3c2[C@H]1Cc1ccc(O)c(O)c1-3 [Apomorphine] .
Completion: 38

Prompt: Please report the recorded Follow-up Confirmation Efficacy for Clc1ccc(Nc2nnc(Cc3ccncc3)c3ccccc23)cc1 [Vatalanib] .
Completion: 97

Prompt: Please report the recorded Follow-up Confirmation Efficacy for Nc1ccc(Cl)cc1C(=O)c1ccccc1F [2-Amino-5-chloro-2’-fluorobenzophenone] .
Completion: 67
